Recorded values, source PubChem BioAssay AID1159580.

// reported normalized growth per item
Assay: chemical genetic growth profiling, strain panel (AID 1159580);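 further: tested at 20 µM; growth read once vehicle control cultures reached saturation at 30 °C; 1 = growth at the plate median or of vehicle wells; lower values mean less growth of the strain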
Settings: S. cerevisiae deletion strains, growth OD, locus YOR184W, strain ser1, hits give low values
About 2,000 (36%) of roughly 5,500 compounds were called active. About 18% were inconclusive and are not listed. The list shows a part of the results.
Respond with the number and no other words.

Some entries whose results are on file:
I'd like to know its normalized growth. The compound in question is CN(C)CCCO[C@H]1[C@@H](C(O)CO)OC2OC(C)(C)O[C@@H]21 (stereo partly drawn)
0.872

I'd like to know its normalized growth. The compound in question is CCCN(CCC)C(=O)C(CCC(=O)O)NC(=O)c1ccccc1 (stereo not drawn)
0.993

I'd like to know its normalized growth. The compound in question is CC1=C(/C=C/C(C)=C/C=C/C(C)=C/C(=O)O)C(C)(C)CCC1
1.03

I'd like to know its normalized growth. The compound in question is CCn1cc(C(=O)O)c(=O)c2cc3c(cc21)OCO3
0.998

Further cases:
I'd like to know its normalized growth. The compound in question is CCOC(=O)CCCCCCCCCCCCC1C=CCC1 (stereo not drawn)
0.0609

I'd like to know its normalized growth. The compound in question is Nc1nc2c(c(=O)[nH]1)N(C=O)C(CNc1ccc(C(=O)N[C@@H](CCC(=O)O)C(=O)O)cc1)CN2 (stereo partly drawn)
0.978
